The values you see were collected from ChEMBL document CHEMBL1125657.

# Test system: Kappa-type opioid receptor
# test_protocol: Compound was tested for antagonist activity against kappa opioid receptor on electrically stimulated guinea pig ileal longitudinal muscle myenteric plexus (GPI) at 100 nM using EK as agonist ligand.
# Assay type: functional
quantity_name: Ratio
# respond with the number and nothing more

[[record]]
smiles_notation = "Oc1ccc2c3c1O[C@H]1C4=C(C[C@@]5(O)[C@@H](C2)N(CC2CC2)CC[C@]315)C(c1ccccc1)C1=C(O4)[C@@H]2Oc3c(O)ccc4c3[C@@]23CCN(CC2CC2)[C@H](C4)[C@]3(O)C1"
tested_on = "Kappa-type opioid receptor"
quantity_name = "Ratio"
experimental_value = 39

[[record]]
smiles_notation = "Oc1ccc2c3c1O[C@H]1c4sc5c(c4C[C@@]4(O)[C@@H](C2)N(CC2CC2)CC[C@]314)C[C@@]1(O)[C@H]2Cc3ccc(O)c4c3[C@@]1(CCN2CC1CC1)[C@H]5O4"
tested_on = "Kappa-type opioid receptor"
quantity_name = "Ratio"
experimental_value = 39

[[record]]
smiles_notation = "Oc1ccc2c3c1O[C@H]1C(SSC4=CC[C@@]5(O)[C@H]6Cc7ccc(O)c8c7[C@@]5(CCN6CC5CC5)[C@H]4O8)=CC[C@@]4(O)[C@@H](C2)N(CC2CC2)CC[C@]314"
tested_on = "Kappa-type opioid receptor"
quantity_name = "Ratio"
experimental_value = 9.7


Attention now turns to another entry.
Look up Kappa-type opioid receptor data: Ratio of O=C1C(=Cc2ccccc2)C[C@@]2(O)[C@H]3Cc4ccc(O)c5c4[C@@]2(CCN3CC2CC2)[C@H]1O5 , then report it.
2

----------
Ke reference
# tested_on: Mu-type opioid receptor (Cavia porcellus) (UniProt P97266)
# Sequence (P97266 whole entry): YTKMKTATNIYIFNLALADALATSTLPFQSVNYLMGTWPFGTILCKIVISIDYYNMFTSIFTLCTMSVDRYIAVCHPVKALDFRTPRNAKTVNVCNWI
# test_protocol: Binding affinity of compound was measured against Opioid receptor mu 1 on electrically stimulated guinea pig ileal longitudinal muscle myenteric plexus (GPI)at 100 nM preparation using M as agonist
Report as a plain number; the unit nM is understood.

[[record]]
compound = "Oc1ccc2c3c1O[C@H]1c4sc5c(c4C[C@@]4(O)[C@@H](C2)N(CC2CC2)CC[C@]314)C[C@@]1(O)[C@H]2Cc3ccc(O)c4c3[C@@]1(CCN2CC1CC1)[C@H]5O4"
value_unit = "nM"
experimental_value = 41


Entry Oc1ccc2c3c1O[C@H]1C(SSC4=CC[C@@]5(O)[C@H]6Cc7ccc(O)c8c7[C@@]5(CCN6CC5CC5)[C@H]4O8)=CC[C@@]4(O)[C@@H](C2)N(CC2CC2)CC[C@]314 needs its Ke filled in; supply it.
2.2

# return recorded Ke for input Oc1ccc2c3c1O[C@H]1C4=C(C[C@@]5(O)[C@@H](C2)N(CC2CC2)CC[C@]315)C(c1ccccc1)C1=C(O4)[C@@H]2Oc3c(O)ccc4c3[C@@]23CCN(CC2CC2)[C@H](C4)[C@]3(O)C1
39

Complete the entry with Ke for O=C1C(=Cc2ccccc2)C[C@@]2(O)[C@H]3Cc4ccc(O)c5c4[C@@]2(CCN3CC2CC2)[C@H]1O5
8.3

Query Ke for Oc1ccc2c3c1O[C@H]1c4[nH]c5c(c4C[C@@]4(O)[C@@H](C2)N(CC2CC2)CC[C@]314)C[C@@]1(O)[C@H]2Cc3ccc(O)c4c3[C@@]1(CCN2CC1CC1)[C@H]5O4 [NORBINALTORPHIMINE]
14

----------
Listing of entries alongside the reported Ke.
# tested_on: Delta-type opioid receptor (Mus musculus) (UniProt P32300)
# Sequence (P32300 whole entry): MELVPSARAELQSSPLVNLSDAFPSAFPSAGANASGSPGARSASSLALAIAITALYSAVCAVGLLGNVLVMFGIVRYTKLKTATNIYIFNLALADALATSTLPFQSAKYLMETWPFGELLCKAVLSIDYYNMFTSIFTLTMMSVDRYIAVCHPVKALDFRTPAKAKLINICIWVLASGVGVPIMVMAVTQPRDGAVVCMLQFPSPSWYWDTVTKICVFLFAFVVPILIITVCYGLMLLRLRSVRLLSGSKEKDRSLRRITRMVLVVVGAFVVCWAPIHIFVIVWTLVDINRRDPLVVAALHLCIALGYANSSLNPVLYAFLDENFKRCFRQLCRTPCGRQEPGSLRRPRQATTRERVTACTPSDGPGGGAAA
# test_protocol: Binding affinity of compound was measured against Opioid receptor delta 1 in mouse vas deferens (MVD) smooth muscle preparation at 100 nM using DADLE as standard agonist
Give just the numeric value; nM need not be written.

# annotated cases, reported Ke shown
[[record]]
compound = "O=C1C(=Cc2ccccc2)C[C@@]2(O)[C@H]3Cc4ccc(O)c5c4[C@@]2(CCN3CC2CC2)[C@H]1O5"
tested_on = "Delta-type opioid receptor (Mus musculus) (UniProt P32300)"
value_unit = "nM"
experimental_value = 2.9

[[record]]
compound = "Oc1ccc2c3c1O[C@H]1C(SSC4=CC[C@@]5(O)[C@H]6Cc7ccc(O)c8c7[C@@]5(CCN6CC5CC5)[C@H]4O8)=CC[C@@]4(O)[C@@H](C2)N(CC2CC2)CC[C@]314"
tested_on = "Delta-type opioid receptor (Mus musculus) (UniProt P32300)"
value_unit = "nM"
experimental_value = 13.2

[[record]]
compound = "Oc1ccc2c3c1O[C@H]1c4[nH]c5c(c4C[C@@]4(O)[C@@H](C2)N(CC2CC2)CC[C@]314)C[C@@]1(O)[C@H]2Cc3ccc(O)c4c3[C@@]1(CCN2CC1CC1)[C@H]5O4 [NORBINALTORPHIMINE]"
tested_on = "Delta-type opioid receptor (Mus musculus) (UniProt P32300)"
value_unit = "nM"
experimental_value = 10.6

[[record]]
compound = "Oc1ccc2c3c1O[C@H]1C4=C(C[C@@]5(O)[C@@H](C2)N(CC2CC2)CC[C@]315)C(c1ccccc1)C1=C(O4)[C@@H]2Oc3c(O)ccc4c3[C@@]23CCN(CC2CC2)[C@H](C4)[C@]3(O)C1"
tested_on = "Delta-type opioid receptor (Mus musculus) (UniProt P32300)"
value_unit = "nM"
experimental_value = 36


For the compound Oc1ccc2c3c1O[C@H]1c4sc5c(c4C[C@@]4(O)[C@@H](C2)N(CC2CC2)CC[C@]314)C[C@@]1(O)[C@H]2Cc3ccc(O)c4c3[C@@]1(CCN2CC1CC1)[C@H]5O4 , give its measured Ke value.
33
